Biological target: recombinant human TREM2-DAP12 fusion protein expressed on cells (human)
Sequence (chain, as listed by the source limits assumed, form in doubt): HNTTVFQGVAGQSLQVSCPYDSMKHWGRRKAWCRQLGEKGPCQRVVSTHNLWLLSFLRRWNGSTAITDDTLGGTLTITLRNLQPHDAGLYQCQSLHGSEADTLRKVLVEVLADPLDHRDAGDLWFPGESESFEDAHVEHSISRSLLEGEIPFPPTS
Assay: cell-based or functional assay
REPORTED_PROPERTY: BWZhT2 LUC Solution (FOB)
Please reply with the bare figure in FOB and do not write the unit itself.

Example results:
[[record]]
binder = "3A2 (antibody, IgG1, V domains shown) VL: DVVMTQTPLSLPVSLGDQASISCRSSQTIIHSNGNTYLEWYLRKPGQSPKLLIYKVSNRFSGVPDRFSGSGSGTDFTLKISRVEAEDLGVYYCFQGSHVPYTFGGGTELEIK VH: QVQLQQSGAELVKPGASVKMSCKTSGYPFSNFWITWVKQRPGQGLVWIGDIYPGSDNSNYNEKFKTKATLTVDTSSSTAYMHLSSLTSEDSAVYFCAREAYYTNPGFAYWGQGTLVTVST"
result_units = "FOB"
reported_measurement = 0.32

[[record]]
binder = "10A9 (antibody, IgG1, V domains shown) VL: DVVMTQTPLSLPVSLGDQASISCRSSQTIIHSNGNTYLEWYLRKPGQSPKLLIYKVSNRFCGVPDRFSGSGSGTDFTLKISRVEAEDLGVYYCFQGSHVPYTFGGGTELEIK VH: QVQLQQSGAEVVKPGASVKMSCKTSGYPFSNFWITWVKQRPGQGLVWIGDIYPGSDNRNFNERFKTKATLTVDTSSSTAYMHLSSLTSEDSAVYFCAREAYYTNPGFAYWGQGTLVTVSA"
result_units = "FOB"
reported_measurement = 0.31


query: Answer with the recorded BWZhT2 LUC Solution (FOB) of 8A1 (antibody, IgG2a, V domains shown) VL: DIQMTQSPASLSVSVGETVTITCRTSENVYSNLAWYQQKQGKSPQLLVYAATNLADGVPSRFSASGSATQFSLKINSLQSADFGSYYCHHFWGTPYTFGGGTKLEMN VH: EVQLQQSGAELVKPGASVKISCKASGYAFSNYWMSWVKQRPGKGLEWIGQIYPGDGDTKYNGKFEGKATLTADKSSSTAYMQLSSLTSEDSAVYFCSREKGADYYGSTYSAWFSYWGQGTLVTVSA only.
result: 0.35
